biological target: Somatostatin receptor 3 (SSTR3) (human), P32745; conditions: N-octanoyl amide on the N-terminal residue; L-mesityl alanine (Msa) at position 6; D-Trp at position 7; disulfide bridge between the two cysteines
Sequence (P32745 whole entry): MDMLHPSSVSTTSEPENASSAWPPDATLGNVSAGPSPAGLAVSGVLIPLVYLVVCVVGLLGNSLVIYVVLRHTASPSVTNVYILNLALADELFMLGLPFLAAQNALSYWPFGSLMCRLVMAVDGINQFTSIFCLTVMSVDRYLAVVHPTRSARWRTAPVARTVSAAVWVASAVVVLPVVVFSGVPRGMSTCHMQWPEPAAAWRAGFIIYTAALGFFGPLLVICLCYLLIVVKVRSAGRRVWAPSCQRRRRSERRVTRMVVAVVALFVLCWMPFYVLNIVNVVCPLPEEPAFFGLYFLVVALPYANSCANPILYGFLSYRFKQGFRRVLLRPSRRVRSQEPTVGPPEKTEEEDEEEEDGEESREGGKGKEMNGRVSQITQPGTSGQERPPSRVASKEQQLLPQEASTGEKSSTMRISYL
outcomeMeasure: IC50

binder | measuredValue
PCKNFFWKTFTSCK [Cortistatin analogue 3] | 100 nM

Reference source: paper PMC7994712
